- target: EGFR Δ746-750/C797S mutant (Homo sapiens (Human), UniProt P00533, C797S/DEL746-750)
- Sequence (P00533 other isoform, or with tags, fused parts or gaps C797S/del 1-668/del 746-750 limits assumed): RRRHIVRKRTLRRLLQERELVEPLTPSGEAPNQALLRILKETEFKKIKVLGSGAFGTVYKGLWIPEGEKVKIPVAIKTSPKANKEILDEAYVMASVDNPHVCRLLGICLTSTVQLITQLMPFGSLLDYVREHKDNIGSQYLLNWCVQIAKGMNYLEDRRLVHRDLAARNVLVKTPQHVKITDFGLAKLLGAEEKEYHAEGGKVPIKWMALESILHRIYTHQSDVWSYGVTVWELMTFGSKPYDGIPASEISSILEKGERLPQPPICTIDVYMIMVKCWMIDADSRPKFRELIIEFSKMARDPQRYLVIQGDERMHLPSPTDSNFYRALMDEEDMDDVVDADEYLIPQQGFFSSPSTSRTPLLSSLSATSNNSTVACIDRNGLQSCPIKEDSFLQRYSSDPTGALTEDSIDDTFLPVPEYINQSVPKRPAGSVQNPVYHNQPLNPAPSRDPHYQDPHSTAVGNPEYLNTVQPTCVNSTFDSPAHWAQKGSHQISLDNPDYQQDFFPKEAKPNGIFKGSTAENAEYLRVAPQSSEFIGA
- method-notes: HotSpot radiometric kinase assay, EGFR Δ746-750/C797S mutant
- measurement-conditions: 10 μM ATP
measurement-name: IC50 (nM)

As a guide, the following entries are already answered.
| molecule | measurement-name | units-symbol | measurement |
| --- | --- | --- | --- |
| Cc1c2c(nn1[C@H]1CCN(C)C[C@@H]1O)OCCCOc1c(cnn1C)-c1ccc3[nH]nc(c3c1)/C=C/2 (racemic) | IC50 | nM | 31.3 |
| CCOc1nn(CCO)c2c1/C=C/c1n[nH]c3ccc(cc13)-c1cnn(C)c1OC[C@H](CC)N(C)C2 | IC50 | nM | 22.9 |
| CCOc1nn(CCO)c2c1/C=C/c1n[nH]c3ccc(cc13)-c1cnn(C)c1O[C@H](C)CNC2 | IC50 | nM | 29.8 |
| C[C@H]1CN(C)Cc2c(c(OC3CCN(S(C)(=O)=O)CC3)nn2C)/C=C/c2n[nH]c3ccc(cc23)-c2cnn(C)c2O1 | IC50 | nM | 41.3 |
| Cc1nn([C@H]2CN(C)C[C@@H]2O)c2c1/C=C/c1n[nH]c3ccc(cc13)-c1cnn(C)c1OCCCO2 (racemic) | IC50 | nM | 28.5 |
| Cc1c2c(nn1C[C@H](C)O)CN(C)C[C@H](C)Oc1c(cnn1C)-c1ccc3[nH]nc(c3c1)/C=C/2 | IC50 | nM | 13.9 |
| CCOc1nn(C)c2c1/C=C/c1n[nH]c3cc(F)c(cc13)-c1cnn(C)c1O[C@@H](C)CN(CC)C2 | IC50 | nM | 0.74 |

(I) CCOc1nn(CCO)c2c1/C=C/c1n[nH]c3ccc(cc13)-c1cnn(C)c1O[C@H]1CN(C)C[C@@H]1N(C)C2 (single isomer, unassigned)
(II) Cc1nn(C)c2c1/C=C/c1n[nH]c3ccc(cc13)-c1cnn(C)c1CN(C)C[C@H](C)O2 (single isomer, unassigned)
(III) C[C@H]1CN(C)Cc2c(c(OCC#N)nn2CCO)/C=C/c2n[nH]c3ccc(cc23)-c2cnn(C)c2O1
(IV) Cc1nn(C[C@H](C)O)c2c1/C=C/c1n[nH]c3ccc(cc13)-c1cnn(C)c1O[C@@H](C)CN(C)C2
(V) CC(C)Oc1nn(CCO)c2c1/C=C/c1n[nH]c3ccc(cc13)-c1cnn(C)c1O[C@@H](C)CN(C)C2
Prompt line: In this exercise, place the 5 molecules in ascending sequence of their recorded IC50. Show the ranking through the labels, in the order asked for.
Response line: III, V, IV, I, II
(III: 0.23 nM, V: 0.39 nM, IV: 0.8 nM, I: 20.5 nM, II: 101 nM)
